# APPLIED CONDITIONS: male, CD1, mouse, in vivo, po, 10 mg/kg
F overview
The figure you give is taken to be in %; do not add the unit.

Guide cases for F, answers given:
Ask | Name the reported F value associated with the compound O=C(c1cc(Br)cc([N+](=O)[O-])c1N[C@@H]1CCCN(C(=O)[C@H]2CNCC(F)(F)C2)C1)N1CCCCC1
Reply | 27.7

Ask | Ok, now CNc1cncc(C(=O)N2CCC[C@@H](Nc3c(C(=O)N4CCCCC4)cc(Br)cc3[N+](=O)[O-])C2)c1
Reply | 42.1

Ask | How about this compound: CNc1cncc(C(=O)N2CCC[C@@H](Nc3c(C(=O)N4CCO[C@H](C)C4)cc(Br)cc3[N+](=O)[O-])C2)c1
Reply | 60

Ask | CNc1cncc(C(=O)N2C[C@H](Nc3c(C(=O)N4C[C@@H](C)O[C@@H](C)C4)cc(Br)cc3[N+](=O)[O-])[C@@H](OC)C2)c1 , same question.
Reply | 84.7

Ask | Same read-out for CNc1cncc(C(=O)N2C[C@H](Nc3c(C(=O)N4C[C@@H](C)O[C@@H](C)C4)cc(Br)cc3[N+](=O)[O-])C[C@@H](OC)C2)c1 ?
Reply | 62.6

Next:
Ask | Would you mind telling me what F value was observed for CNc1cncc(C(=O)N2CCC[C@@H](Nc3c(C(=O)N4CCCC(F)(F)C4)cc(Br)cc3[N+](=O)[O-])C2)c1 ?
Reply | 29.7

Ask | What would you report for CNc1cncc(C(=O)N2CCC[C@@H](Nc3c(C(=O)N4C[C@@H](C)O[C@@H](C)C4)cc(Br)cc3[N+](=O)[O-])C2)c1 ?
Reply | 63

Ask | Same read-out for CNc1cncc(C(=O)N2CCC[C@@H](Nc3c(C(=O)N4CCOC(F)(F)C4)cc(Br)cc3[N+](=O)[O-])C2)c1 ?
Reply | 36.3

---

# PROTOCOL DETAILS: in vivo
# APPLIED CONDITIONS: male, CD1, mouse, in vivo, iv, 1 mg/kg
QUANTITY MEASURED: half-life
Enter the number, and then the unit.

Ask | Using the record for CNc1cncc(C(=O)N2CCC[C@@H](Nc3c(C(=O)N4C5CCCC4COC5)cc(Br)cc3[N+](=O)[O-])C2)c1 [Example 312] , report its half-life.
Reply | 7.68 min

---

# STUDY TARGET: SARS-COV-2 3CLpro/Mpro protease (Severe acute respiratory syndrome coronavirus 2 (2019-nCoV) (SARS-CoV-2), UniProt P0DTD1)
# PROTOCOL DETAILS: Inhibitory effect on SARS-COV-2 3CLpro/Mpro protease by fluorescence resonance energy transfer
# Assay type: biochemical
# APPLIED CONDITIONS: activity intervals A-D, read-out: IC50 (nM), Inhibition on SARS-CoV-2 3CLpro/Mpro protease
QUANTITY MEASURED: IC50

Worked cases, answers included:
Ask | # get_value(readout='IC50', item= CNc1cncc(C(=O)N2CCC[C@@H](Nc3c(C(=O)N4CCOC[C@H]4C)cc(Br)cc3[N+](=O)[O-])C2)c1 )
Reply | 10 to 50 nM

Ask | Queued: CNc1cncc(C(=O)N2CCC[C@@H](Nc3c(C(=O)N4CC=CCC4)cc(Br)cc3[N+](=O)[O-])C2)c1
Reply | 10 to 50 nM

Please examine the following record next.
Ask | # IC50 lookup, item CNc1cncc(C(=O)N2C[C@H](Nc3c(C(=O)N4C[C@@H](C)O[C@@H](C)C4)cc(Br)cc3[N+](=O)[O-])[C@@H](OCc3ccc(C(F)(F)F)nc3)C2)c1
Reply | 100 to 200 nM

---

# STUDY TARGET: SARS-COV-2 3CLpro/Mpro protease (Severe acute respiratory syndrome coronavirus 2 (2019-nCoV) (SARS-CoV-2), UniProt P0DTD1)
# PROTOCOL DETAILS: Inhibitory effect on SARS-COV-2 3CLpro/Mpro protease by fluorescence resonance energy transfer
# Assay type: biochemical
# APPLIED CONDITIONS: activity intervals A-D, read-out: IC50 (nM), Inhibition on SARS-CoV-2 3CLpro/Mpro protease
Measured IC50 values are reported for all entries that follow.

See these solved cases before continuing.
Ask | What measured IC50 goes with CNc1cncc(C(=O)N2C[C@H](Nc3c(C(=O)N4C[C@@H](C)O[C@@H](C)C4)cc(Br)cc3[N+](=O)[O-])[C@@H](OCc3nccs3)C2)c1 ?
Reply | 10 to 50 nM

Ask | Param item: C[C@@H]1CN(C(=O)c2cc(Br)cc([N+](=O)[O-])c2N[C@@H]2CCCC[C@@H]2NC(=O)c2cncc3cc(Cl)ccc23)C[C@H](C)N1
Reply | 10 to 50 nM

---
Ask | Request the reported IC50 associated with N[C@@H]1C[C@H](O)CN(C(=O)c2cc(Br)cc([N+](=O)[O-])c2N[C@@H]2CCCC[C@@H]2NC(=O)c2cncc3ccccc23)C1
Reply | 10 to 50 nM

---

# STUDY TARGET: SARS-COV-2 3CLpro/Mpro protease (Severe acute respiratory syndrome coronavirus 2 (2019-nCoV) (SARS-CoV-2))
# PROTOCOL DETAILS: Inhibitory effect on SARS-COV-2 3CLpro/Mpro protease by fluorescence resonance energy transfer
# Assay type: biochemical
# APPLIED CONDITIONS: activity intervals A-D, read-out: IC50 (nM), Inhibition on SARS-CoV-2 3CLpro/Mpro protease
Reported IC50 values follow for various molecules

Here is how some molecules turned out for IC50.
Ask | Find the recorded IC50 belonging to O=C(N[C@H]1COCC[C@H]1Nc1c(C(=O)N2CCCCC2)cc(Br)cc1[N+](=O)[O-])c1cncc2ccccc12 and report it.
Reply | 10 to 50 nM

Ask | Record: CNc1cncc(C(=O)N2C[C@H](Nc3c(C(=O)N4C[C@@H](C)O[C@@H](C)C4)cc(Br)cc3[N+](=O)[O-])C[C@H]2C(=O)Nc2ccnc(C(F)(F)F)n2)c1
Reply | 50 to 100 nM

Ask | Same lookup for CNc1cncc(C(=O)N2C[C@H](Nc3c(C(=O)N4C[C@@H](C)O[C@@H](C)C4)cc(Br)cc3[N+](=O)[O-])C[C@H]2C(=O)Nc2ncc(Br)cn2)c1 , please.
Reply | 50 to 100 nM

Ask | And C[C@@H]1CN(C(=O)c2cc(Br)cc([N+](=O)[O-])c2N[C@@H]2CCN(C(=O)c3cncc(Br)c3)C2)C[C@H](C)O1 ?
Reply | < 10 nM

Ask | Next: CNc1cncc(C(=O)N2C[C@H](Nc3c(C(=O)N4C[C@@H](C)O[C@@H](C)C4)cc(Br)cc3[N+](=O)[O-])C[C@H]2C(=O)N2CCc3nn(C)cc3C2)c1
Reply | 50 to 100 nM

Continuing:
Ask | Any idea what its IC50 is? The molecule is COCCN1CCN(C(=O)c2cc(Br)cc([N+](=O)[O-])c2N[C@@H]2CCCN(C(=O)[C@H]3CC(=O)N[C@@H](C)C3)C2)CC1
Reply | 10 to 50 nM

Ask | Input CNc1cncc(C(=O)N2C[C@H](Nc3c(C(=O)N4C[C@@H](C)O[C@@H](C)C4)cc(Br)cc3[N+](=O)[O-])C[C@H]2C(=O)N2CCOCC2)c1
Reply | 50 to 100 nM

Ask | And what about the molecule O=C(c1cc(Br)cc([N+](=O)[O-])c1N[C@@H]1CCCN(C(=O)[C@H]2CNCC(F)(F)C2)C1)N1CCC2(CCCO2)CC1 ?
Reply | 10 to 50 nM

Ask | What do you get for [2H]C1([2H])CC[C@@H](Nc2c(C(=O)N3C[C@@H](C)O[C@@H](C)C3)cc(Br)cc2[N+](=O)[O-])C([2H])([2H])N1C(=O)c1cncc(NC)c1 ?
Reply | 10 to 50 nM

Ask | Queued: Nc1cncc(C(=O)N2CCC[C@@H](Nc3c(C(=O)N4CCCCC4)cc(Br)cc3[N+](=O)[O-])C2)c1
Reply | 10 to 50 nM

Ask | Moving on to the next molecule: CNc1cncc(C(=O)N2CCC[C@@H](Nc3c(C(=O)N4CCO[C@H](C(F)(F)F)C4)cc(Br)cc3[N+](=O)[O-])C2)c1
Reply | 10 to 50 nM

Ask | What would you report for C[C@@H]1C[C@H](C)CN(C(=O)c2cc(Br)cc([N+](=O)[O-])c2N[C@@H]2CCCN(C(=O)c3cncc(Br)c3)C2)C1 ?
Reply | < 10 nM

Ask | What would you report for CNc1cncc(C(=O)N2CCC[C@@H](Nc3c(C(=O)N4CCC(C5CCOCC5)CC4)cc(Br)cc3[N+](=O)[O-])C2)c1 ?
Reply | 10 to 50 nM

Ask | Ok, now CNc1cncc(C(=O)N2C[C@H](Nc3c(C(=O)N4C[C@@H](C)O[C@@H](C)C4)cc(Br)cc3[N+](=O)[O-])C[C@H]2C(=O)N[C@@H]2CCNC2=O)c1
Reply | 50 to 100 nM

Ask | Next molecule up: CNc1cncc(C(=O)N2CCC[C@@H](Nc3c(C(=O)N4CCC(C)(O)CC4)cc(Br)cc3[N+](=O)[O-])C2)c1
Reply | 10 to 50 nM

Ask | Now give it for O=C(N[C@H]1COCC[C@H]1Nc1c(C(=O)N2CCCCC2)cc(Br)cc1[N+](=O)[O-])c1cncc2cc(Cl)ccc12 too.
Reply | 10 to 50 nM
